Hello, the source for this data is ChEMBL document CHEMBL6109114, in case you need it.

tested.system: CYP2C9 (Homo sapiens)
Sequence (P11712 whole entry): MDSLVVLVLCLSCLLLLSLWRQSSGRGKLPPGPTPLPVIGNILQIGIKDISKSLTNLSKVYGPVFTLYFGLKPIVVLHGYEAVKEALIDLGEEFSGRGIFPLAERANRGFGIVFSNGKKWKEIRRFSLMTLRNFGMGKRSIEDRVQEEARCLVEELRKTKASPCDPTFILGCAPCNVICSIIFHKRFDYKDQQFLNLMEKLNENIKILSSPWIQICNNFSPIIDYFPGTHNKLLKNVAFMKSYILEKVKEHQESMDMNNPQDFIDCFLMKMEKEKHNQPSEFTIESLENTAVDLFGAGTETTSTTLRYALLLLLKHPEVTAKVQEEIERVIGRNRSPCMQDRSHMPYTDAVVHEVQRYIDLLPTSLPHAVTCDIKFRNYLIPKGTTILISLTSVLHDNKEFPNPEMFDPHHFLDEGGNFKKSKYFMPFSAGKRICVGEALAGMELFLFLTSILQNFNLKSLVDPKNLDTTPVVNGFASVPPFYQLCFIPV
assay.text: Inhibition of CYP2C9 in human liver microsomes using diclofenac as substrate at 10 uM incubated for 10 mins in presence of NADPH by LC-MS/MS analysis relative to control
Assay type: ADME, Microsome
condition.notes: probe diclofenac
measured.quantity: inhibition at 10 min, 10 µM (%)
Value expressed in %; do not type the unit.

inhibition at 10 min, 10 µM in this record for `Cc1cc(=O)n(-c2cc(Cl)ccc2F)nc1C(=O)Nc1ccc(Oc2ccnc(NC(=O)N3CC(O)C3)c2)c(F)c1` : 25.6

* * *

System: NCI-H441
assay.text: Antiproliferative activity against non-FLT3 expressing human NCI-H441 cells assessed as inhibition of cell growth measured after 3 days by celltiter-glo luminescent cell viability assay
Assay type: functional, cell-based
condition.notes: NCI-H441, 72 h
measured.quantity: IC50

IC50 in this record for `Cc1cc(=O)n(-c2cc(Cl)ccc2F)nc1C(=O)Nc1ccc(Oc2ccnc(NC(=O)N3CC(O)C3)c2)c(F)c1` : > 30 µM

* * *

tested.system: CYP1A2 (Homo sapiens, UniProt P05177)
Sequence (P05177 whole entry): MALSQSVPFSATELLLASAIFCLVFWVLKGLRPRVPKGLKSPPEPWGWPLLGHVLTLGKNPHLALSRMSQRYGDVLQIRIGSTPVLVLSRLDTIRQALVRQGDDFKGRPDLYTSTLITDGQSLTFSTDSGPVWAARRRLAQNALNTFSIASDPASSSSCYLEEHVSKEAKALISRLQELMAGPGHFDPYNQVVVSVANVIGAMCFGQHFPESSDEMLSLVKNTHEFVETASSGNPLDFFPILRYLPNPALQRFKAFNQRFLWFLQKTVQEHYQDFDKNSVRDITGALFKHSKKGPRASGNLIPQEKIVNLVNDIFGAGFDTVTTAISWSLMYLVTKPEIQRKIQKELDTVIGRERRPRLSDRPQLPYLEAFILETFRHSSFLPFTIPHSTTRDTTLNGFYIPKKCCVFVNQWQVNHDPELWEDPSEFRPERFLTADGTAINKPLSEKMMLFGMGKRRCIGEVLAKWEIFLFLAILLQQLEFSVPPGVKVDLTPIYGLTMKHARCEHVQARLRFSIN
assay.text: Inhibition of CYP1A2 in human liver microsomes using phenacetin as substrate at 10 uM incubated for 10 mins in presence of NADPH by LC-MS/MS analysis relative to control
Type: ADME, Microsome
condition.notes: probe phenacetin
measured.quantity: inhibition at 10 min, 10 µM (%)
Value expressed in %; do not type the unit.

inhibition at 10 min, 10 µM in this record for `Cc1cc(=O)n(-c2cc(Cl)ccc2F)nc1C(=O)Nc1ccc(Oc2ccnc(NC(=O)N3CC(O)C3)c2)c(F)c1` : 9.5

* * *

System: BaF3
assay.text: Antiproliferative activity against mouse BaF3 cells harbouring FLT3-ITD assessed as inhibition of cell growth measured after 3 days by celltiter-glo luminescent cell viability assay
Assay type: functional, cell-based
condition.notes: BaF3, 72 h
measured.quantity: IC50 (µM)
Value expressed in µM; do not type the unit.

Considering `Cc1cc(=O)n(-c2ccc(F)cc2)nc1C(=O)Nc1ccc(Oc2ccnc(NC(=O)N3CC(O)C3)c2)c(F)c1` , its IC50 with BaF3 was recorded as 0.49

Considering `Cc1cc(=O)n(-c2ccc(C(F)(F)F)cc2)nc1C(=O)Nc1ccc(Oc2ccnc(NC(=O)N3CC(O)C3)c2)c(F)c1` , its IC50 with BaF3 was recorded as 0.99

Considering `COc1cc2nccc(Oc3ccc(NC(=O)N/N=C/c4cn(-c5ccccc5OC)nn4)cc3)c2cc1OC` , its IC50 with BaF3 was recorded as 5.82

* * *

measured.quantity: pIC50
Scale: negative log10 of molar concentration, which is what pIC50 denotes.

Considering `Cc1cc(=O)n(-c2cc(Cl)ccc2F)nc1C(=O)Nc1ccc(Oc2ccnc(NC(=O)N3CC(O)C3)c2)c(F)c1` , its pIC50 with Vascular endothelial growth factor receptor 3 (Homo sapiens) was recorded as 6.78

* * *

assay.text: Metabolic stability in Beagle dog liver microsomes assessed as intrinsic clearance at 1 uM measured up to 60 mins in presence of NADPH regenerating system by LC-MS/MS analysis
Format: ADME, Canis lupus familiaris, Microsome
condition.notes: read-out: CLH
measured.quantity: microsomal CLint at 1 µM (µL/min/mg)
Value expressed in µL/min/mg; do not type the unit.

microsomal CLint at 1 µM in this record for `Cc1cc(=O)n(-c2cc(Cl)ccc2F)nc1C(=O)Nc1ccc(Oc2ccnc(NC(=O)N3CC(O)C3)c2)c(F)c1` : 11.1

* * *

assay.text: Metabolic stability in Sprague-Dawley rat liver microsomes assessed as intrinsic clearance at 1 uM measured up to 60 mins in presence of NADPH regenerating system by LC-MS/MS analysis
Type: ADME, Microsome
condition.notes: read-out: CLH
measured.quantity: microsomal CLint at 1 µM (µL/min/mg)
Value expressed in µL/min/mg; do not type the unit.

microsomal CLint at 1 µM in this record for `Cc1cc(=O)n(-c2cc(Cl)ccc2F)nc1C(=O)Nc1ccc(Oc2ccnc(NC(=O)N3CC(O)C3)c2)c(F)c1` : 11.8

* * *

tested.system: Receptor-type tyrosine-protein kinase FLT3 (Homo sapiens, UniProt P36888, ITD)
Sequence (P36888 whole entry, looked up, stated change not applied): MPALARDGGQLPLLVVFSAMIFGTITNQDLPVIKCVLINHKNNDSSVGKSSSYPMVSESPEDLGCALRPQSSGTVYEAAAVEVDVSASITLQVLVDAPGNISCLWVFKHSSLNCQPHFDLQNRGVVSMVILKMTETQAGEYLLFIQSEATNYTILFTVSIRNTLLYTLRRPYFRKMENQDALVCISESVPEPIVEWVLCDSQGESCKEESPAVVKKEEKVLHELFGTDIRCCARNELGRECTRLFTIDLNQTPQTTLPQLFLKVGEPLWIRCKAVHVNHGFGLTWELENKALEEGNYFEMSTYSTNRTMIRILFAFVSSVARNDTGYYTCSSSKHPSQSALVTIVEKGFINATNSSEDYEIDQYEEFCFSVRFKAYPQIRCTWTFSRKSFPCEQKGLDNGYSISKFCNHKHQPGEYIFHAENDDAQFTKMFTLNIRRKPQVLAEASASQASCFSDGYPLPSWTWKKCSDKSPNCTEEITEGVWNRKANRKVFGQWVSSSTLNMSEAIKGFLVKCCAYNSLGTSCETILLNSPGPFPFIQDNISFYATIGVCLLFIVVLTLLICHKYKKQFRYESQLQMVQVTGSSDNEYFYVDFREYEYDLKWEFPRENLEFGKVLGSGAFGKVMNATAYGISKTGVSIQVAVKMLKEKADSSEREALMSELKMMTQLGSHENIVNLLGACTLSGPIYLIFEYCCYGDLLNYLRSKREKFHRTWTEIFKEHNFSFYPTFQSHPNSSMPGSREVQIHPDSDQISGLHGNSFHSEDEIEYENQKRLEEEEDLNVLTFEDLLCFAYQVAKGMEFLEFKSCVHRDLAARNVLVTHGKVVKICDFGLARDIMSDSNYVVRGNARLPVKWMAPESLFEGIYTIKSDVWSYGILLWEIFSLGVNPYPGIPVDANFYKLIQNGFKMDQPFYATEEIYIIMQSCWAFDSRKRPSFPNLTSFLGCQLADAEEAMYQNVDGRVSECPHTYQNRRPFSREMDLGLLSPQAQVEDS
assay.text: Inhibition of FLT3 ITD mutant (unknown origin) using Fluorescein-Poly GT as substrate preincubated for 10 mins followed by substrate addition and measured after 30 mins in presence of ATP by mobility shift assay
measured.quantity: pIC50
Scale: negative log10 of molar concentration, which is what pIC50 denotes.

pIC50 in this record for `Cc1cc(=O)n(-c2cc(Cl)ccc2F)nc1C(=O)Nc1ccc(Oc2ccnc(NC(=O)N3CC(O)C3)c2)c(F)c1` : 6.82

* * *

assay.text: MRT (0 to t) in mouse at 5 mg/kg, iv
Type: ADME, organism-based
condition.notes: in vivo
measured.quantity: MRT last
The reply should read as a number followed by its unit.

MRT last in this record for `Cc1cc(=O)n(-c2cc(Cl)ccc2F)nc1C(=O)Nc1ccc(Oc2ccnc(NC(=O)N3CC(O)C3)c2)c(F)c1` : 7.17 h

* * *

assay.text: Permeability of the compound incubated for 4 hrs by PAMPA method
Format: ADME
condition.notes: read-out: permeability
measured.quantity: Papp at 4 h (×10⁻⁶ cm/s)
Value expressed in ×10⁻⁶ cm/s; do not type the unit.

Papp at 4 h in this record for `Cc1cc(=O)n(-c2cc(Cl)ccc2F)nc1C(=O)Nc1ccc(Oc2ccnc(NC(=O)N3CC(O)C3)c2)c(F)c1` : 0.86

* * *

assay.text: AUC (0 to infinity) in mouse at 10 mg/kg, po
Format: ADME, organism-based
condition.notes: in vivo
measured.quantity: AUC(0-inf)

AUC(0-inf) in this record for `Cc1cc(=O)n(-c2cc(Cl)ccc2F)nc1C(=O)Nc1ccc(Oc2ccnc(NC(=O)N3CC(O)C3)c2)c(F)c1` : 1430 ng·h/mL

* * *

assay.text: Tmax in mouse at 10 mg/kg, po
Assay type: ADME, organism-based
condition.notes: in vivo
measured.quantity: Tmax (h)
Value expressed in h; do not type the unit.

Tmax in this record for `Cc1cc(=O)n(-c2cc(Cl)ccc2F)nc1C(=O)Nc1ccc(Oc2ccnc(NC(=O)N3CC(O)C3)c2)c(F)c1` : 1.17

* * *

assay.text: AUC (0 to t) in mouse at 5 mg/kg, iv
Assay type: ADME, organism-based
condition.notes: in vivo
measured.quantity: AUC(0-t) (ng·h/mL)
Value expressed in ng·h/mL; do not type the unit.

AUC(0-t) in this record for `Cc1cc(=O)n(-c2cc(Cl)ccc2F)nc1C(=O)Nc1ccc(Oc2ccnc(NC(=O)N3CC(O)C3)c2)c(F)c1` : 2030

* * *

tested.system: CYP2C19 (Homo sapiens)
Sequence (P33261 whole entry): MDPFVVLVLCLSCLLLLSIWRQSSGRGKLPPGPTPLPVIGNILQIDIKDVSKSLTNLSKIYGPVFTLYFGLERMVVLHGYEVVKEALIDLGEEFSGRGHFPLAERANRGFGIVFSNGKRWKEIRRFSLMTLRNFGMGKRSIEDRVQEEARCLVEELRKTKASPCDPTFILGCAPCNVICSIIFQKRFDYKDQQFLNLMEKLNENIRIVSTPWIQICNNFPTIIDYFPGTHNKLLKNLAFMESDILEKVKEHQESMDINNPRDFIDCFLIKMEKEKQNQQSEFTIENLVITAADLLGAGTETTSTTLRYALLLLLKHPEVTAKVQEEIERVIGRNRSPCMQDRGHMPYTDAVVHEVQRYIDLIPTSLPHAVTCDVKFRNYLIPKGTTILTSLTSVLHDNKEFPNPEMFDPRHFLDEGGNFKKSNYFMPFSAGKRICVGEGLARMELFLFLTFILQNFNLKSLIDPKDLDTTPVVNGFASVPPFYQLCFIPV
assay.text: Inhibition of CYP2C19 in human liver microsomes using S-mephenytoin as substrate at 10 uM incubated for 10 mins in presence of NADPH by LC-MS/MS analysis relative to control
Assay type: ADME, Microsome
condition.notes: probe S-mephenytoin
measured.quantity: inhibition at 10 min, 10 µM (%)
Value expressed in %; do not type the unit.

inhibition at 10 min, 10 µM in this record for `Cc1cc(=O)n(-c2cc(Cl)ccc2F)nc1C(=O)Nc1ccc(Oc2ccnc(NC(=O)N3CC(O)C3)c2)c(F)c1` : 36.9

* * *

assay.text: Half life in mouse at 10 mg/kg, po
Type: ADME, organism-based
condition.notes: in vivo
measured.quantity: half-life
The reply should read as a number followed by its unit.

half-life in this record for `Cc1cc(=O)n(-c2cc(Cl)ccc2F)nc1C(=O)Nc1ccc(Oc2ccnc(NC(=O)N3CC(O)C3)c2)c(F)c1` : 1.83 h

* * *

System: MV4-11
assay.text: Antiproliferative activity against human MV4-11 cells harbouring FLT3-ITD assessed as inhibition of cell growth measured after 3 days by celltiter-glo luminescent cell viability assay
Assay type: functional, cell-based
condition.notes: MV4-11, 72 h
measured.quantity: IC50 (nM)
Value expressed in nM; do not type the unit.

IC50 in this record for `Cc1cc(=O)n(-c2cc(Cl)ccc2F)nc1C(=O)Nc1ccc(Oc2ccnc(NC(=O)N3CC(O)C3)c2)c(F)c1` : 390

* * *

assay.text: Metabolic stability in Beagle dog liver microsomes assessed as half life at 1 uM measured up to 60 mins in presence of NADPH regenerating system by LC-MS/MS analysis
Assay type: ADME, Canis lupus familiaris, Microsome
measured.quantity: half-life at 1 µM (h)
Value expressed in h; do not type the unit.

half-life at 1 µM in this record for `Cc1cc(=O)n(-c2cc(Cl)ccc2F)nc1C(=O)Nc1ccc(Oc2ccnc(NC(=O)N3CC(O)C3)c2)c(F)c1` : 2.1

* * *

Tested on: BaF3
assay.text: Antiproliferative activity against mouse BaF3 cells harbouring FLT3-ITD-D835V mutant assessed as inhibition of cell growth measured after 3 days by celltiter-glo luminescent cell viability assay
Assay type: functional, cell-based
condition.notes: BaF3, 72 h
measured.quantity: IC50 (µM)
Value expressed in µM; do not type the unit.

IC50 in this record for `Cc1cc(=O)n(-c2cc(Cl)ccc2F)nc1C(=O)Nc1ccc(Oc2ccnc(NC(=O)N3CC(O)C3)c2)c(F)c1` : 7.8
